Measurement Notes: Toxicity liver stage against HepG2, at 10uM
Assay type: cell-based
Design: test concentration 10 uM, cell line HepG2-A16-CD81EGFP
Experimental Setup: human, HepG2-A16-CD81EGFP cells; read-out: INHIBITION
In this section, each of the compounds is paired with its reported cytotoxicity at 10 µM.
The response must be a number in % with no trailing unit.

Here is how some compounds turned out for cytotoxicity at 10 µM.
{"Compound": "CNC(=O)[C@@H](c1ccccc1F)N1CCC[C@H]1C(=O)NC1CC1", "Readout": "cytotoxicity at 10 µM", "Assay Result": -5.84}
{"Compound": "Cn1cc(N2CC3(CCN(Cc4ccccc4)CC3)OCC2=O)cn1", "Readout": "cytotoxicity at 10 µM", "Assay Result": 5.25}
{"Compound": "O=C(NC1CCCC1)c1cc(Sc2ncccn2)ccn1", "Readout": "cytotoxicity at 10 µM", "Assay Result": -12.3}
{"Compound": "NC(=O)C1CCN(C(=O)NCc2ccccc2-n2cccn2)CC1", "Readout": "cytotoxicity at 10 µM", "Assay Result": -11.1}
{"Compound": "CCc1nc(NC(=O)Cc2csc(-c3nnc[nH]3)n2)sc1C", "Readout": "cytotoxicity at 10 µM", "Assay Result": -45.1}
{"Compound": "CN(CCOc1cccc(CN)c1)C1CCOCC1", "Readout": "cytotoxicity at 10 µM", "Assay Result": -1.35}

So what's the measured cytotoxicity at 10 µM for this one? N#Cc1cccc(NC2CC(=O)N(Cc3cccc(F)c3)C2)n1 (stereo not given)
-94.2

Next compound: "CC(C)c1cc(Br)ccc1NC(=O)NC(C)(CO)CO"
9.83

Can you handle "CNC(=O)CN1CCC(NC(=O)Cc2ccccc2OC(C)C)CC1" next?
-2.14

Then this compound: "Cc1occc1C(=O)N1CCC2(CC1)CN(Cc1nccs1)CCO2"
5.22
